test system: Francisella tularensis; experiment: Antibacterial activity against Francisella tularensis LVS after 18 hrs by Microplate Alamar Blue assay; format: functional
attribute.measured: MIC90 (µg/mL)
The figure you give is taken to be in µg/mL; do not add the unit.

Lab book: MIC90 of CCN(CC)c1cc2[nH]c(-c3ccccc3OC)nc2cc1NC(=O)c1ccccc1OC noted as 4.85

Lab book: MIC90 of CCOC(=O)Nc1cc(NC(=O)C2CCCCC2)c2[nH]c(-c3ccc(C(=O)OC)cc3)nc2c1 noted as 1.5

Lab book: MIC90 of CN(C)CCN(C)c1cc2[nH]c(C3CCCCC3)nc2cc1NS(=O)(=O)c1ccccc1 noted as 48.6

Lab book: MIC90 of CCOC(=O)Nc1cc(NC(=O)C2CCCC2)c2[nH]c(-c3ccc(Br)cc3)nc2c1 noted as 0.75

Lab book: MIC90 of CCOC(=O)Nc1cc(N)c2[nH]c(-c3cc(C)cc(C)c3)nc2c1 noted as 4.33

Lab book: MIC90 of CCN(CC)c1cc2[nH]c(-c3ccc(F)cc3)nc2cc1NC(=O)C1CCC1 noted as 4.84

Lab book: MIC90 of CCOC(=O)Nc1cc(NC(=O)c2ccc(F)cc2)c2[nH]c(-c3ccco3)nc2c1 noted as 2.8

Lab book: MIC90 of COc1ccccc1C(=O)Nc1cc2nc(-c3ccco3)[nH]c2cc1N1CCCCC1 noted as 2.1

Lab book: MIC90 of CCOC(=O)Nc1cc(NC(=O)c2ccccc2OC)c2[nH]c(-c3ccc(Br)cc3)nc2c1 noted as 1.4

Lab book: MIC90 of CCN(CCN(C)C)c1cc2[nH]c(C3CCCCC3)nc2cc1NS(=O)(=O)c1ccccc1 noted as 35.8

Lab book: MIC90 of CCOC(=O)Nc1cc(NC(=O)c2ccccc2)c2[nH]c(-c3ccc(Br)cc3)nc2c1 noted as 0.48
